Measured EC50 values are reported for all entries that follow.
- experimental target: T1, human CD47 on CCRF-CEM cells (human, UniProt Q08722 19-323)
- T1 construct: whole, on cells
- protocol details: flow cytometry on CCRF-CEM cells, MFI curve
Write the value in nM as a bare number.

[
  {
    "binder": "7A11H32 (antibody, V domains shown, also called CD47 antibody) VH: QVQLVQSGAEVKKPGSSVKVSCKASGSSFTSNWMNWVRQAPGQGLEWIGMIHPSDSETRLNQKFKDRVTITADKSTSTAYMELSSLRSEDTAVYYCARGTTVVDAFAYWGQGTTVTVSS VL: DIQMTQSPSSLSASVGDRVTMTCKSSQSLLNSRTRKNYLAWYQQKPGKAPKLLIYWASTRESGVPSRFSGSGSGTDFTLTISSLQPEDFATYYCKQSYNLRTFGGGTKLEIK",
    "EC50 [nM]": 0.717
  },
  {
    "binder": "7A11H55 (antibody, V domains shown, also called CD47 antibody) VH: QVQLVQSGAEVKKPGSSVKVSCKASGGTFTSNWMNWVRQAPGQGLEWIGMIHPSDSETRLNQKFQGRVTITADKSTSTAYMELSSLRSEDTAVYYCARGTTVVDAFAYWGQGTTVTVSS VL: EIVMTQSPPTLSLSPGERVTMSCKSSQSLLNSRTRKNYLAWYQQKPGQAPRLLIYWASTRESGIPARFSGSGSGTDFTLTISSLQPEDFAVYYCKQSYNLRTFGGGTKLEIK",
    "EC50 [nM]": 1.21
  }
]

Moving on to another binder below.
Documented EC50 of 7A11H22 (antibody, V domains shown, also called CD47 antibody) VH: QVQLVQSGAEVKKPGASVKVSCKASGSSFTSNWMNWVRQAPGQGLEWIGMIHPSDSETRLNQKFKDRATLTVDKSTSTAYMELSSLRSEDTAVYYCARGTTVVDAFAYWGQGTTVTVSS VL: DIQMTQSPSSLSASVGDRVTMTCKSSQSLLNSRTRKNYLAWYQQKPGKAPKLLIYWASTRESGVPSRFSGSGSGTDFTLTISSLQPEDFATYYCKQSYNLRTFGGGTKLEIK : 0.82
